testedOn: CDK7 protein (Homo sapiens)
Construct: To verify endogenous CDK7 protein degradation; endogenous in cells; host or cells: A2780 (ECACC 93112519)
methodDescription: Western blot assay for CDK7 protein degradation in A2780 cells;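 also: A is DC50 up to 100 nM B is 100 to 1000 nM C is above 1000 nM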
Format: cell-based
conditionSet: 24 hours, read-out: Compound concentration that caused 50% CDK7 protein degradation in A2780 cells (DC50)
observedProperty: DC50

Example entries and their recorded answers appear below.
compound	DC50
Cc1ncsc1-c1ccc(CNC(=O)[C@@H]2C[C@@H](O)CN2C(=O)[C@@H](NC(=O)C2(F)CC2)C(C)(C)C)c(OCCOCCOCCOCCOCCNc2ccc3c(-c4ccccc4CNc4nc(O[C@@H]5CCCNC5)nc5c(C(C)C)cnn45)nccc3c2)c1	≤ 100 nM
CC(C)c1cnn2c(NCc3ccccc3-c3nccc4cc(NCCOCCOCCNC(=O)CNc5ccc6c(c5)CN(C5CCC(=O)NC5=O)C6=O)ccc34)nc(O[C@@H]3CCCNC3)nc12 (stereo partly drawn)	100 to 1000 nM

Below: the item to evaluate.
Incoming: What does the record list as DC50 for Cc1ncsc1-c1ccc(CNC(=O)[C@@H]2C[C@@H](O)CN2C(=O)[C@@H](NC(=O)C2(F)CC2)C(C)(C)C)c(OCCN2CCC(N3CCC(CNc4ccc5c(-c6ccccc6CNc6nc(O[C@@H]7CCCNC7)nc7c(C(C)C)cnn67)nccc5c4)CC3)CC2)c1 ?
Outgoing: ≤ 100 nM

====

testedOn: CDK7/CycH/MNAT1 (Homo sapiens)
Construct: His; purchased Invitrogen PR6749B
Sequence (P50613 whole entry): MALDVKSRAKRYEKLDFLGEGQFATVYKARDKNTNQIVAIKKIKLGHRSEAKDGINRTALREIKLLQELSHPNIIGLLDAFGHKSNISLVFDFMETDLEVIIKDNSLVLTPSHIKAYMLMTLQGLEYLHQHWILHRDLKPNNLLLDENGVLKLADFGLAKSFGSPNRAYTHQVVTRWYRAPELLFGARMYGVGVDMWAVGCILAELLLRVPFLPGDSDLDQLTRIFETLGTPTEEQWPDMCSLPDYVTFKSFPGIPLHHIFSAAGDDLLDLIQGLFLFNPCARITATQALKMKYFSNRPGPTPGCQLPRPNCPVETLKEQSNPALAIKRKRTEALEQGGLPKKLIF
Sequence (P51946 whole entry partner): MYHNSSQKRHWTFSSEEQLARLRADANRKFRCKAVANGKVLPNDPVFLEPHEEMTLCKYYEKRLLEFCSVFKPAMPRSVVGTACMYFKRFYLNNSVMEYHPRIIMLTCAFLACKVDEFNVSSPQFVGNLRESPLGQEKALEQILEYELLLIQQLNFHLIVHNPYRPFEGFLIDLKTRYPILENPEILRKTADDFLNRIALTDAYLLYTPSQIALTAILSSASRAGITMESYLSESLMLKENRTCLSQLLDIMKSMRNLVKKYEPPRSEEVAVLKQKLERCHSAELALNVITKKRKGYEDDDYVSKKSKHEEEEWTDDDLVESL
Sequence (P51948 whole entry partner): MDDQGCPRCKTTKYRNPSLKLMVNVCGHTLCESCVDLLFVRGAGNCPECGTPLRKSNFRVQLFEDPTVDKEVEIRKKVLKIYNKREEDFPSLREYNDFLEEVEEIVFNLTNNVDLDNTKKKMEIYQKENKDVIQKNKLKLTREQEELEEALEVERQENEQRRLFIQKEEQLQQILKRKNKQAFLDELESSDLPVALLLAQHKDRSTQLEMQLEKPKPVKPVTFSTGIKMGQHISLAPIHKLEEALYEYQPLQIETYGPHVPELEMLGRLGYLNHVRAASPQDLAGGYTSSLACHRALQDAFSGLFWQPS
methodDescription: Binding assay (FRET, LanthaScreen Eu, Tracer236) for CDK7
conditionSet: read-out: CDK7 IC50 (enzyme binding assay)
pIC50: −log10 of the molar value.
Property: pIC50; scope: individual compounds

smilesString	pIC50
Cc1ncsc1-c1ccc(CNC(=O)[C@@H]2C[C@@H](O)CN2C(=O)[C@@H](NC(=O)C2(F)CC2)C(C)(C)C)c(OCCCCCCCCNc2ccc3c(-c4ccccc4CNc4nc(O[C@@H]5CCCNC5)nc5c(C(C)C)cnn45)nccc3c2)c1	6.00 to 7.00

Below: the item to evaluate.
Incoming: What does the record list as pIC50 for Cc1ncsc1-c1ccc(CNC(=O)[C@@H]2C[C@@H](O)CN2C(=O)[C@@H](NC(=O)C2(F)CC2)C(C)(C)C)c(OCCOCCOCCNc2ccc3c(-c4ccccc4CNc4nc(O[C@@H]5CCCNC5)nc5c(C(C)C)cnn45)nccc3c2)c1 ?
Outgoing: ≥ 7.00

====

testedOn: CDK7 protein (Homo sapiens, UniProt P50613)
Construct: To verify endogenous CDK7 protein degradation; endogenous in cells; host or cells: A2780 (ECACC 93112519)
Sequence (P50613 whole entry): as the sequence (P50613 whole entry) above
methodDescription: Western blot assay for CDK7 protein degradation in A2780 cells;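 also: A is DC50 up to 100 nM B is 100 to 1000 nM C is above 1000 nM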
Format: cell-based
conditionSet: 24 hours, read-out: Compound concentration that caused 50% CDK7 protein degradation in A2780 cells (DC50)
observedProperty: DC50

molecule	DC50
CC(C)C[C@H](NC(=O)[C@@H](O)[C@H](N)Cc1ccccc1)C(=O)NCCOCCOCCNc1ccc2c(-c3ccccc3CNc3nc(O[C@@H]4CCCNC4)nc4c(C(C)C)cnn34)nccc2c1	> 1000 nM
Cc1ncsc1-c1ccc([C@H](C)NC(=O)[C@@H]2C[C@@H](O)CN2C(=O)[C@@H](NC(=O)CCOCCOCCNc2ccc3c(-c4ccccc4CNc4nc(O[C@@H]5CCCNC5)nc5c(C(C)C)cnn45)nccc3c2)C(C)(C)C)cc1	≤ 100 nM

Below: the item to evaluate.
Incoming: What does the record list as DC50 for CC(C)c1cnn2c(NCc3ccccc3-c3nccc4cc(NCC5CCN(CC6CCN(c7ccc8c(c7)C(=O)N(C7CCC(=O)NC7=O)C8=O)CC6)CC5)ccc34)nc(O[C@@H]3CCCNC3)nc12 (stereo partly drawn) ?
Outgoing: ≤ 100 nM

Data origin: patent US20240343732A1
